These data points were gathered from patent US6683211B1.

Recorded inhibition at 200 ppm values for a group of compounds are listed next.
# System: Phytophthora
# Experiment: D-3b) systemic action against Phytophthora on potato plants
# Type: in vivo
# Cond: Phytophthora, 96 h; 200 ppm; test D-3b) systemic (soil watering); potato plants (Bintje); evaluated after 4 days; read-out: inhibit fungal infestations

{"Compound": "C#CCOc1ccc(CCNC(=O)C(OCC=C)c2ccc(Br)cc2)cc1OC (stereo not shown) [Compound E1.021]", "Result": "80 to 100%"}

Data request: # input compound: C#CCOc1ccc(CCNC(=O)C(OCC#C)c2ccc(C(F)(F)F)cc2)cc1OC (stereo not shown) [Compound E1.050] ; wanted: its inhibition at 200 ppm
Data returned: 80 to 100%

Data request: # repeat for C#CCOc1ccc(CCNC(=O)C(OCC#CC)c2ccc(Br)cc2)cc1OC (stereo not shown) [Compound E1.025]
Data returned: 80 to 100%

Data request: # repeat for C#CCOc1ccc(CCNC(=O)C(OCC)c2ccc(Cl)cc2)cc1OC (stereo not shown) [Compound E1.004]
Data returned: 80 to 100%

Data request: # repeat for C#CCOc1ccc(CCNC(=O)C(OC)c2ccc(Br)cc2)cc1OC (stereo not shown) [Compound E1.019]
Data returned: 80 to 100%

Data request: # repeat for C#CCOC(C(=O)NCCc1ccc(OCC#CCC)c(OC)c1)c1ccc(Cl)cc1 (stereo not shown) [Compound E1.012]
Data returned: 80 to 100%

Data request: # repeat for C#CCOc1ccc(CCNC(=O)C(OCC#C)c2ccc(Cl)c(F)c2)cc1OC (stereo not shown) [Compound E1.091]
Data returned: 80 to 100%

====

# Tested on: Phytophthora
# Experiment: D-3b) systemic action against Phytophthora on potato plants
# Type: in vivo
# Cond: Phytophthora, 96 h; 200 ppm; test D-3b) systemic (soil watering); potato plants (Bintje); evaluated after 4 days; read-out: inhibit fungal infestations
Recorded inhibition at 200 ppm values for a group of compounds are listed next.

Past entries and their recorded results:
{"Compound": "C#CCOc1ccc(CCNC(=O)C(OCC#C)c2ccc(Cl)cc2)cc1OC (stereo not drawn) [Compound E1.011]", "System under test": "Phytophthora", "inhibition at 200 ppm": "80 to 100%"}
{"Compound": "C#CCOc1ccc(CCNC(=O)C(OCC=C)c2ccc(Cl)cc2)cc1OC (stereo not drawn) [Compound E1.009]", "System under test": "Phytophthora", "inhibition at 200 ppm": "80 to 100%"}

# context switch: different compound, same inhibition at 200 ppm
Data request: # input compound: C#CCOc1ccc(CCNC(=O)C(OCC#C)c2ccc(Br)cc2)cc1OC (stereo not drawn) [Compound E1.022] ; wanted: its inhibition at 200 ppm
Data returned: 80 to 100%
